B1: PDZK1 (parent)
chain: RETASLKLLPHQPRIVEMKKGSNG

- Variants of: B1
- PROTOCOL DETAILS: protein stability index of a GFP-peptide fusion (GPS, HEK-293T) (PSI 1-6); higher = more stable;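 also: lentivirally expressed fusions sorted by FACS into six bins by GFP to DsRed ratio, PSI derived from sequencing read proportions per bin multiplied by bin number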
- CONDITION CONTEXT: c terminus: a fixed tail appended
ENDPOINT LABEL: protein stability index
Answer field: number only, no words.

Some variants with recorded protein stability index:
RETASLKLLPHCPRIVEMKKGSNG [Q12C]; 3.27
FETASLKLLPHQPRIVEMKKGSNG [R1F]; 2.99
RETASLKLLPHPPRIVEMKKGSNG [Q12P]; 4.03
RETASLKLLPGQPRIVEMKKGSNG [H11G]; 3.38
REGASLKLLPHQPRIVEMKKGSNG [T3G]; 3.27

Switching to the query record.
Would you kindly share the measured protein stability index for RETASLKLLPHQPRIVEMKKGVNG [S22V] ?
4
